Recorded CDMF75 IC15 by entry
target: bovine cardiac myofibrils (full-length cardiac myosin ATPase in the native sarcomere) (Bos taurus (Bovine)); test: Skinned bovine cardiac myofibril ATPase assay (PK/LDH-coupled); format: biochemical; settings: Ca2+ activating to 75% of maximal rate, concentration giving 15% inhibition
Sequence (Q9BE39 whole entry): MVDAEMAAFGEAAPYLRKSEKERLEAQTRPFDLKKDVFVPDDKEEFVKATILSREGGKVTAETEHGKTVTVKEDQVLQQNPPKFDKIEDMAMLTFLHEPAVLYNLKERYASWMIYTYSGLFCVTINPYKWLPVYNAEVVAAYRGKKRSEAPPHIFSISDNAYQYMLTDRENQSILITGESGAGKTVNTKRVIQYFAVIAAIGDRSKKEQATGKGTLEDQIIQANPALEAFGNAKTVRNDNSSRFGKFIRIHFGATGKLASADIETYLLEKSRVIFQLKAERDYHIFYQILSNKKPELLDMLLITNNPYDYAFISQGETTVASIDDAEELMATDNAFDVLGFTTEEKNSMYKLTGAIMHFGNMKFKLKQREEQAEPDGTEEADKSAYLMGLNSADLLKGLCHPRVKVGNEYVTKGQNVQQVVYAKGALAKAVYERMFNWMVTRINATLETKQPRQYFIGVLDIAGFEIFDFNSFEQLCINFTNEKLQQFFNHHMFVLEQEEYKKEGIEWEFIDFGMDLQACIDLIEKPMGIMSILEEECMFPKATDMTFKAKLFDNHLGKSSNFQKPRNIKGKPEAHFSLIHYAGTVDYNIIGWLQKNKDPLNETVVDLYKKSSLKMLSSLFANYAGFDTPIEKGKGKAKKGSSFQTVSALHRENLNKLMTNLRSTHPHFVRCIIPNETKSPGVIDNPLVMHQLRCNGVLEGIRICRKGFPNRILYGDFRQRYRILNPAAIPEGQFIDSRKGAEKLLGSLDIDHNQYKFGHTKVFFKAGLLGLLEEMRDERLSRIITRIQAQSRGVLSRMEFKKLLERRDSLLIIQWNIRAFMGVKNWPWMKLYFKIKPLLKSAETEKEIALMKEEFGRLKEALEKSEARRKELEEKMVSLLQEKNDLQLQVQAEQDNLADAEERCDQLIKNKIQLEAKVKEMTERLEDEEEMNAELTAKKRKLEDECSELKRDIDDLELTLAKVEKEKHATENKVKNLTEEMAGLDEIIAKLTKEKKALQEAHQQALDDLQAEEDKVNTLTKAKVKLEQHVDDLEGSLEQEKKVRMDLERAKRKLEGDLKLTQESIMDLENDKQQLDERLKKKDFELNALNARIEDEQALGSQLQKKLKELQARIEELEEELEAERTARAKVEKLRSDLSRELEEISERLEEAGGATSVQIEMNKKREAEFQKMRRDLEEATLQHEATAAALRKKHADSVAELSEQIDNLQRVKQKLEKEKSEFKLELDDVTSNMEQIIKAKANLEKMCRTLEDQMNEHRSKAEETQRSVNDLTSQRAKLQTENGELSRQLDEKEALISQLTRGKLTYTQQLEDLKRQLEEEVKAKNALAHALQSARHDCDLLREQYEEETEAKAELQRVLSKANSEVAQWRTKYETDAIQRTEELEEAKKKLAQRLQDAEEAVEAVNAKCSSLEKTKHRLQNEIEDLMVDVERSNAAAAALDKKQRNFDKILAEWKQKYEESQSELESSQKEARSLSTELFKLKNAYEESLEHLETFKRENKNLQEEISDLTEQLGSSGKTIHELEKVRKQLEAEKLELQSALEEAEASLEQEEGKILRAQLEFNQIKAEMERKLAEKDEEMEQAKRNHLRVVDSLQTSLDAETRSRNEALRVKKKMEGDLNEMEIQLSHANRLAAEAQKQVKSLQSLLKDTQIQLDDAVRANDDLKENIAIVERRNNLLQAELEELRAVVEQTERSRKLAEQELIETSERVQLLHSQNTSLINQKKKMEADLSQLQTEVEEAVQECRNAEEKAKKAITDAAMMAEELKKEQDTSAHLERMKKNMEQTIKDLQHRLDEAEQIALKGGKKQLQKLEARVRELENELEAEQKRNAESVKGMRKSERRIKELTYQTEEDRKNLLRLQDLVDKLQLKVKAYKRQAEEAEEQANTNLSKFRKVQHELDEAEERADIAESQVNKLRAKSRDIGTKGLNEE
Sequence (P85100 whole entry partner): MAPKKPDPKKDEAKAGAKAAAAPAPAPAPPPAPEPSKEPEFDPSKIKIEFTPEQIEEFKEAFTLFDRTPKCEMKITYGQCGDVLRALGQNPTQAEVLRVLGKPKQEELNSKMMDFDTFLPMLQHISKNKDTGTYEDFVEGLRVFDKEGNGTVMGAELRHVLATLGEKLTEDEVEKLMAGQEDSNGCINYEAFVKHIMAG
Sequence (Q3SZE5 whole entry partner): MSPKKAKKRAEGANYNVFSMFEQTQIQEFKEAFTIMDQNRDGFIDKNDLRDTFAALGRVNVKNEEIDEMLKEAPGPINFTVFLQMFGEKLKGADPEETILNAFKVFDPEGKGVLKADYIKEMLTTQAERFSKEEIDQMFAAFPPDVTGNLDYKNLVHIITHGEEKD
Quote the value and follow it with the unit of measurement.

The reported value for Cc1nc(-c2ccc3c(c2)CC[C@H]3NC(=O)C(F)F)no1 in terms of CDMF75 IC15 is 2600 nM

The reported value for O=C(NC1CCc2cc(-c3noc(C(F)F)n3)ccc21)c1ccccc1 (centres unmarked) in terms of CDMF75 IC15 is 430 nM

The reported value for O=C(N[C@@H]1CCc2cc(-c3noc(C4CC4)n3)ccc21)OCC(F)F in terms of CDMF75 IC15 is 600 nM

The reported value for CCc1nc(-c2ccc3c(c2)CC[C@H]3NC(=O)c2ccno2)no1 [Compound 582] in terms of CDMF75 IC15 is 400 nM

The reported value for [2H]C([2H])([2H])c1nc(-c2ccc3c(c2)OC[C@H]3NC(=O)c2oc(C)nc2C)no1 in terms of CDMF75 IC15 is 1900 nM

The reported value for O=C(N[C@@H]1CCc2cc(-c3noc(C(F)F)n3)ccc21)c1cnn(CCO)c1 in terms of CDMF75 IC15 is 1100 nM

The reported value for Cc1cc(C(=O)NC2COc3cc(-c4noc(C(F)F)n4)ccc32)n(C)n1 (centres unmarked) in terms of CDMF75 IC15 is 600 nM

The reported value for Cc1nc(-c2ccc3c(c2)CCC3NC(=O)c2ccnn2C)no1 (centres unmarked) in terms of CDMF75 IC15 is 800 nM

The reported value for Cc1ccc(-c2ccc3c(c2)CC[C@H]3NC(=O)c2ccnn2C)cn1 in terms of CDMF75 IC15 is 10600 nM

The reported value for O=C(NC1CCc2cc(-c3noc(C(F)F)n3)ccc21)c1cn[nH]c1 (centres unmarked) in terms of CDMF75 IC15 is 1500 nM

***
The reported value for CCc1nc(-c2ccc3c(c2)CC[C@H]3NC(=O)c2cnn(CCO)c2)no1 in terms of CDMF75 IC15 is 600 nM

The reported value for Cn1cc(C(=O)N[C@@H]2CCc3cc(-c4noc(C(F)F)n4)ccc32)ccc1=O in terms of CDMF75 IC15 is 1500 nM

The reported value for COCc1nc(-c2ccc3c(c2)CC[C@H]3NC(=O)c2ccnn2C)no1 in terms of CDMF75 IC15 is 400 nM

The reported value for CCc1nc(-c2ccc3c(c2)CC[C@H]3NC(=O)c2ccn(C[C@@H](C)O)c(=O)c2)no1 in terms of CDMF75 IC15 is 1300 nM

The reported value for COCc1nc(-c2ccc3c(c2)CC[C@H]3NC(=O)c2cccc(CO)c2F)no1 in terms of CDMF75 IC15 is 5800 nM

The reported value for Cc1cnc(C(=O)N[C@@H]2CCc3cc(-c4noc(C(F)F)n4)ccc32)o1 in terms of CDMF75 IC15 is 1300 nM

The reported value for O=C(N[C@@H]1CCc2cc(-c3noc(C4CC4)n3)ccc21)OC1CCCC1 in terms of CDMF75 IC15 is 1200 nM

The reported value for COCc1nc(-c2ccc3c(c2)OC[C@H]3NC(=O)c2cccc([C@@H](C)O)c2)no1 in terms of CDMF75 IC15 is 2400 nM

The reported value for Cc1ncc(C(=O)N[C@@H]2CCc3cc(-c4noc(C(F)F)n4)ccc32)n1C in terms of CDMF75 IC15 is 700 nM

The reported value for CCc1nc(-c2ccc3c(c2)CC[C@H]3NC(=O)N2CC[C@@H](O)C2)no1 in terms of CDMF75 IC15 is 1700 nM

The reported value for CC(C)OC(=O)N[C@@H]1CCc2cc(-c3noc(C(F)F)n3)ccc21 in terms of CDMF75 IC15 is 22400 nM

The reported value for CCc1nc(-c2ccc3c(c2)OCC[C@H]3NC(=O)c2cnn(C)c2)no1 in terms of CDMF75 IC15 is 1000 nM

The reported value for Cc1cc(-c2ccc3c(c2)CC[C@H]3NC(=O)c2ccnn2C)no1 in terms of CDMF75 IC15 is 400 nM

The reported value for Cc1ccnc(-c2ccc3c(c2)CC[C@H]3NC(=O)c2ccnn2C)n1 in terms of CDMF75 IC15 is 2100 nM

The reported value for O=C(N[C@@H]1CCc2cc(-c3noc(C4CC4)n3)ccc21)C(F)F in terms of CDMF75 IC15 is 1100 nM

The reported value for CC(=O)N[C@@H]1CCc2cc(-c3noc(C4CCC4)n3)ccc21 in terms of CDMF75 IC15 is 1900 nM

The reported value for CC(=O)N[C@@H]1COc2cc(-c3noc(C)n3)ccc21 in terms of CDMF75 IC15 is 3200 nM

The reported value for CCc1noc(-c2ccc3c(c2)CC[C@H]3NC(=O)c2cnn(C)c2)n1 in terms of CDMF75 IC15 is 1300 nM

The reported value for CC(=O)N[C@@H]1COc2cc(-c3noc(C4CC4)n3)ccc21 in terms of CDMF75 IC15 is 1200 nM

The reported value for COC(=O)N[C@@H]1CCc2cc(-c3noc(C(C)C)n3)ccc21 in terms of CDMF75 IC15 is 600 nM
